Test system: SK-MEL-5 melanoma
assay summary: NCI tumour cell line growth inhibition, 48 h
Below, each of the compounds is paired with its reported TGI value.

Worked examples, 3 compounds total:
CC(C)C[P+](c1ccccc1)(c1ccccc1)c1ccccc1; 18.2 µM
Cc1cccc(C(C)C)c1NC(=O)C(=O)CC(=O)c1c(C)n([O-])c2ccccc2[n+]1=O; > 100 µM
S=c1[nH]c(=S)c2cc(Sc3ccc4[nH]c(=S)[nH]c(=S)c4c3)ccc2[nH]1; > 100 µM

## Input Given the entry COc1ccc2c3c1OC1c4[nH]c5ccccc5c4CC4(O)C(C2)N(C)CCC314 (stereo unspecified) , report its measured TGI.
## Output 29.5 µM

## Input Same again, this time with COC(=O)C1C2C=CC(C2)N1[C@@H](C)c1ccccc1 (stereo partly specified)
## Output > 100 µM

## Input Same again, this time with CCC12CCCC(=O)N1C(CO)C(c1ccccc1)O2 (stereo unspecified)
## Output > 100 µM

These measurements were taken from PubChem BioAssay (NCI).
